TESTED SYSTEM: human β3 adrenergic receptor (Homo sapiens)
Construct: expressed in transfected cells; host or cells: Chinese hamster ovary (CHO) cells, stably transfected
TEST PROTOCOL: Beta-3 agonist in vitro functional assay: cAMP production (LANCE TR-FRET) in CHO cells stably transfected with the cloned β3 receptor
Assay type: cell-based
DETAILS: Table 10; Beta-3 agonist in vitro functional assay; read-out: Human β3 agonist functional activity
pEC50: −log10 of the molar value.
OBSERVABLE: pEC50

{"COMPOUND": "CC(C(=O)N1CCc2ncccc2C1)N1CCN(C(=O)c2ccc(C[C@@H]3CC[C@H]([C@H](O)c4ccccc4)N3)cc2)CC1 (some centres unmarked) [Example 507]", "OBSERVABLE": "pEC50", "MEAS VALUE": "7.00 to 8.00"}

Query block: Give the measured pEC50 of CC(C)CCNC(=O)C(C)N1CCN(C(=O)c2ccc(C[C@@H]3CC[C@H]([C@H](O)c4ccccc4)N3)cc2)CC1 (some centres unmarked) [Example 438] .
Result block: 6.00 to 7.00

Query block: Tell me the measured pEC50 of CC(C(=O)N1C[C@@H]2C[C@H]1CO2)N1CCN(C(=O)c2ccc(C[C@@H]3CC[C@H]([C@H](O)c4ccccc4)N3)cc2)CC1 (some centres unmarked) [Example 500] , please.
Result block: 7.00 to 8.00

Query block: pEC50 lookup needed for CC(C(=O)NCC(C)(C)O)N1CCN(C(=O)c2ccc(C[C@@H]3CC[C@H]([C@H](O)c4ccccc4)N3)cc2)CC1 (some centres unmarked) [Example 443] , thanks.
Result block: 7.00 to 8.00

Query block: Query: pEC50; subject: CC(C)C1CC(CNC(=O)C(C)N2CCN(C(=O)c3ccc(C[C@@H]4CC[C@H]([C@H](O)c5ccccc5)N4)cc3)CC2)C1 (some centres unmarked) [Example 454]
Result block: 7.00 to 8.00

---

TESTED SYSTEM: human β3 adrenergic receptor (Homo sapiens, UniProt P13945)
Construct: expressed in transfected cells; host or cells: Chinese hamster ovary (CHO) cells, stably transfected
Sequence (P13945 whole entry): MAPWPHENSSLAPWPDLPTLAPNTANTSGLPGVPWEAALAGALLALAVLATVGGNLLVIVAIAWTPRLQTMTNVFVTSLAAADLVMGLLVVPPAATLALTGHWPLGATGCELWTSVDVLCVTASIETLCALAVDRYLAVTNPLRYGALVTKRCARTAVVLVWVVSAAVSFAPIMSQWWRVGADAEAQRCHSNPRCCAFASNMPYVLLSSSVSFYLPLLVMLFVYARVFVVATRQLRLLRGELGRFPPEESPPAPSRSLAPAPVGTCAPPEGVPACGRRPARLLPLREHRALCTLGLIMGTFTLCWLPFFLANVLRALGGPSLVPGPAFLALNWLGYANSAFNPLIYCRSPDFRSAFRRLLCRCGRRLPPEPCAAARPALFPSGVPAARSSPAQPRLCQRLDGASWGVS
TEST PROTOCOL: Beta-3 agonist in vitro functional assay: cAMP production (LANCE TR-FRET) in CHO cells stably transfected with the cloned β3 receptor
Type: cell-based
DETAILS: Table 5; cAMP, CHO cells; read-out: Human β3 agonist functional activity
OBSERVABLE: EC50

Solved entries:
{"MOLECULE": "O=C(c1ccc(C[C@@H]2CC[C@H]([C@H](O)c3ccccc3)N2)cc1)N1CCC(Cn2ccncc2=O)CC1", "TESTED SYSTEM": "human β3 adrenergic receptor (Homo sapiens, UniProt P13945)", "MEAS VALUE": "10 to 99.9 nM"}
{"MOLECULE": "O=C(c1ccc(C[C@@H]2CC[C@H]([C@H](O)c3ccccc3)N2)cc1)N1CCC(n2cnnn2)CC1", "TESTED SYSTEM": "human β3 adrenergic receptor (Homo sapiens, UniProt P13945)", "MEAS VALUE": "10 to 99.9 nM"}
{"MOLECULE": "CC(C)n1nnnc1C1CCN(C(=O)c2ccc(C[C@@H]3CC[C@H]([C@H](O)c4ccccc4)N3)cc2)CC1", "TESTED SYSTEM": "human β3 adrenergic receptor (Homo sapiens, UniProt P13945)", "MEAS VALUE": "1 to 9.9 nM"}

Query block: Can you share its EC50? I mean this molecule: O=C(c1ccc(C[C@@H]2CC[C@H]([C@H](O)c3ccccc3)N2)cc1)N1CCC(Cn2cccnc2=O)CC1
Result block: 100 to 999 nM

Query block: Item under review: O=C(c1ccc(C[C@@H]2CC[C@H]([C@H](O)c3ccccc3)N2)cc1)N1CCC(c2nc3ccccc3o2)CC1 . Reported EC50?
Result block: 100 to 999 nM

Query block: Consider the molecule Cc1cncn1C1CCN(C(=O)c2ccc(C[C@@H]3CC[C@H]([C@H](O)c4cccnc4)N3)cc2)CC1 and give its measured EC50.
Result block: 100 to 999 nM

Query block: Requested field: EC50. Item: O=C(c1ccc(C[C@@H]2CC[C@H]([C@H](O)c3ccccc3)N2)cc1)N1CCC(c2ncc(-c3ccccc3)[nH]2)CC1
Result block: 100 to 999 nM

Query block: I am curious: what EC50 value has been reported for COC(=O)c1csc(C2CCN(C(=O)c3ccc(C[C@@H]4CC[C@H]([C@H](O)c5ccccc5)N4)cc3)CC2)n1 ?
Result block: 10 to 99.9 nM

Query block: Look at this molecule and give its reported EC50. CS(=O)(=O)C1CCN(C(=O)c2ccc(C[C@@H]3CC[C@H]([C@H](O)c4cccnc4)N3)cc2)CC1
Result block: 100 to 999 nM

Query block: Would you kindly share the measured EC50 for O=C(c1ccc(C[C@@H]2CC[C@H]([C@H](O)c3cccnc3)N2)cc1)N1CCC(c2cccc(F)n2)CC1 ?
Result block: 10 to 99.9 nM

Query block: Give its EC50 value. Item: Cc1nc(C2CCN(C(=O)c3ccc(C[C@@H]4CC[C@H]([C@H](O)c5ccccc5)N4)cc3)CC2)ns1
Result block: 100 to 999 nM

Query block: For Cc1cn(C2CCN(C(=O)c3ccc(C[C@@H]4CC[C@H]([C@H](O)c5ccccc5)N4)cc3)CC2)nn1 , what is its reported EC50?
Result block: 10 to 99.9 nM

Query block: Value lookup for EC50; key = NC(=O)C1CCN(C(=O)c2ccc(C[C@@H]3CC[C@H]([C@H](O)c4ccccc4)N3)cc2)CC1
Result block: 100 to 999 nM

Query block: Endpoint output: EC50 of CCS(=O)(=O)C1CCN(C(=O)c2ccc(C[C@@H]3CC[C@H]([C@H](O)c4ccccc4)N3)cc2)CC1 . Value?
Result block: 1 to 9.9 nM

Query block: What value of measured EC50 is listed for O=C(c1ccc(C[C@@H]2CC[C@H]([C@H](O)c3ccccc3)N2)cc1)N1CCC(S(=O)(=O)C2CCCC2)CC1 ?
Result block: 10 to 99.9 nM

Query block: // returns reported EC50 for input O=C(c1ccc(C[C@@H]2CC[C@H]([C@H](O)c3ccccc3)N2)cc1)N1CCC(Cn2ncccc2=O)CC1
Result block: 10 to 99.9 nM

---

This listing pairs compounds with measured pEC50.
TESTED SYSTEM: human β3 adrenergic receptor (Homo sapiens, UniProt P13945)
Construct: expressed in transfected cells; host or cells: Chinese hamster ovary (CHO) cells, stably transfected
TEST PROTOCOL: Beta-3 agonist in vitro functional assay: cAMP production (LANCE TR-FRET) in CHO cells stably transfected with the cloned β3 receptor
Assay type: cell-based
DETAILS: Table 5; cAMP, CHO cells; read-out: Human β3 agonist functional activity
pEC50: −log10 of the molar value.

Look over these answered cases.
{"MOLECULE": "O=C(c1ccc(C[C@@H]2CC[C@H]([C@H](O)c3ccccc3)N2)cc1)N1CCC(OCc2ccccn2)CC1", "pEC50": "6.00 to 7.00"}
{"MOLECULE": "COC(=O)c1cc(OC2CCN(C(=O)c3ccc(C[C@@H]4CC[C@H]([C@H](O)c5ccccc5)N4)cc3)CC2)no1", "pEC50": "6.00 to 7.00"}
{"MOLECULE": "O=C(O)C1CCN(C(=O)c2ccc(C[C@@H]3CC[C@H]([C@H](O)c4ccccc4)N3)cc2)CC1", "pEC50": "6.00 to 7.00"}
{"MOLECULE": "COc1cc(OC)nc(C2CCN(C(=O)c3ccc(C[C@@H]4CC[C@H]([C@H](O)c5ccccc5)N4)cc3)CC2)n1", "pEC50": "6.00 to 7.00"}
{"MOLECULE": "Nc1nnc(C2CCN(C(=O)c3ccc(C[C@@H]4CC[C@H]([C@H](O)c5ccccc5)N4)cc3)CC2)o1", "pEC50": "7.00 to 8.00"}
{"MOLECULE": "O=C(c1ccc(C[C@@H]2CC[C@H]([C@H](O)c3cccnc3)N2)cc1)N1CCC(S(=O)(=O)c2ccc(F)cc2)CC1", "pEC50": "6.00 to 7.00"}

Here's the next entry for you.
Query block: Recorded pEC50 for O=C(c1ccc(C[C@@H]2CC[C@H]([C@H](O)c3ccccc3)N2)cc1)N1CCC(N2C(=O)OCc3ccccc32)CC1 with human β3 adrenergic receptor (Homo sapiens, UniProt P13945), please?
Result block: 8.00 to 9.00
